Can you tell me kON improvement factor vs parental scFv Li3G30 for the items I'm about to list?
target: EGFRvIII-Fc fusion antigen (human, UniProt P00533 25-645); assay: SPR Biacore T200, EGFRvIII-Fc captured via anti-hu Fc, scFv analyte, 1:1 model;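 note: Multi-cycle kinetics on a CM5 chip in HBS-P+ running buffer, 180 s scFv association then 540 s dissociation, with blank flow cell signals subtracted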
The reply should contain only the number, in fold.

Query :: Respond only with kON improvement factor vs parental scFv Li3G30 recorded for scFv 469 (scFv, V domains shown, One-chain scFv, His-tagged) VH: EVQLVQSGAEVKKPGESLKISCKGSGYSFNSYWIGWVRQMPGKGLEWMGIIYPGDSDTRYSPSFQGQVTISADKSISTAYLQWSSLKASDTAMYYCARLGSSWTNDAFDIWGQGTLVTVSS VL: SYELTQPPSVSVSPGQTARITCSGDTLPKQYAYWYQQKPGQAPVLVIYKDSERPSGIPERFSGSSSGTTVTLTISGVQAEDEADYYCQSVDVSGTYVVFGGGTKLTVL
Result :: 5.2

Query :: Respond only with kON improvement factor vs parental scFv Li3G30 recorded for scFv 477 (scFv, V domains shown, One-chain scFv, His-tagged) VH: EVQLVQSGAEVKKPGESLKISCKGSGYSFSSYWIGWVRQMPGKGLEWMGIIYPGDSDTRYSPSFQGQVTISADKSISTAYLQWSSLKASDTAMYYCARLGSSWTNDAFDIWGQGTLVTVSS VL: SYELTQPPSVSVSPGQTARITCSGDYLPKQYAYWYQQKPGQAPVLVIYKDTERPSGIPERFSGSSSGTTVTLTISGVQAEDEADYYCQSADASGTYYVFGGGTKLTVL
Result :: 18.8
